Data provenance: patent US20200397796A1

# Measurement Notes: Single dose PK, dog
# Format: in vivo
# Assay Context: in vivo; Dog IV 1 mg/kg single dose
Value Type: half-life (h)
Record the value in h, omitting the unit from your answer.

Report half-life, nothing else, for this molecule: N#Cc1cnc(Nc2cc(NCC3CNCCO3)c(C(F)(F)F)cn2)cn1 (stereo not shown) 2.8

* * *

# Measurement Notes: Phase 1 clinical trial, SRA737 in combination with gemcitabine dose escalation
# Type: in vivo, human
# Assay Context: human, plasma, oral; 80 mg; Day −7; mean, n = 3
Value Type: half-life
Reply with the number, then its unit.

Report measured half-life; entry is N#Cc1cnc(Nc2cc(NCC3CNCCO3)c(C(F)(F)F)cn2)cn1 (stereo not shown) [SRA737] 11.3 h
